# protocolDetails: BTK FAC plasma stability assay, cyno plasma
# Assay type: in vitro ADME, cynomolgus monkey
experimentalEndpoint: Plasma stability (h) cyno

* CCCCCCCCCCCN(C(=O)CCCCCCCCCC(=O)O)C(CCC(=O)NCCOCCOCCOCCOCCOCCOCCOCCOCCOCCOCCOCCOCCC(=O)N1CCC(CC(=O)OC(C)(C)c2ccc(C(=O)Nc3cc(F)cc(-c4ncnc5[nH]c(-c6ccc(CCN7CCC8(CC7)CCN(C(=O)c7ccc(OC)c(N9CCC(=O)NC9=O)c7)CC8)cc6)cc45)c3C)c(F)c2)CC1)C(=O)O (stereo not drawn) | >48 h

Reported Plasma stability (h) cyno for CCCCCCCCCCCN(C(=O)CCCCCCCCCC(=O)O)C(CCC(=O)NCCOCCOCCOCCOCCOCCOCCOCCOCCOCCOCCOCCOCCC(=O)N1CCN(CC(=O)OC(C)(C)c2ccc(C(=O)Nc3cc(F)cc(-c4ncnc5[nH]c(-c6ccc(CCN7CCC8(CC7)CCN(C(=O)c7ccc(OC)c(N9CCC(=O)NC9=O)c7)CC8)cc6)cc45)c3C)c(F)c2)CC1)C(=O)O (stereo not drawn) was >48 h

For reference, reported Plasma stability (h) cyno for CCCCCCCCCCCN(C(=O)CCCCCCCCCC(=O)O)C(CCC(=O)NCCOCCOCCOCCOCCOCCOCCOCCOCCOCCOCCOCCOCCOCCOCCOCCOCCC(=O)NCC(=O)OC(C)(C)c1ccc(C(=O)Nc2cc(F)cc(-c3ncnc4[nH]c(-c5ccc(CCN6CCC7(CC6)CCN(C(=O)c6ccc(OC)c(N8CCC(=O)NC8=O)c6)CC7)cc5)cc34)c2C)c(F)c1)C(=O)O (stereo not drawn) stands at 30.8 h

Entry CCCCCCCCCCCN(C(=O)CCCCCCCCCC(=O)O)C(CCC(=O)NCCOCCOCCOCCOCCOCCOCCOCCOCCOCCOCCOCCOCCC(=O)NCc1ccc(C(=O)OC(C)(C)c2ccc(C(=O)Nc3cc(F)cc(-c4ncnc5[nH]c(-c6ccc(CCN7CCC8(CC7)CCN(C(=O)c7ccc(OC)c(N9CCC(=O)NC9=O)c7)CC8)cc6)cc45)c3C)c(F)c2)cc1)C(=O)O (stereo not drawn) , Plasma stability (h) cyno reported as >48 h

Entry CCCCCCCCCCCN(C(=O)CCCCCCCCCC(=O)O)C(CCC(=O)NCCOCCOCCOCCOCCOCCOCCOCCOCCOCCOCCOCCOCCC(=O)N[C@@H](C)CC(=O)OC(C)(C)c1ccc(C(=O)Nc2cc(F)cc(-c3ncnc4[nH]c(-c5ccc(CCN6CCC7(CC6)CCN(C(=O)c6ccc(OC)c(N8CCC(=O)NC8=O)c6)CC7)cc5)cc34)c2C)c(F)c1)C(=O)O (stereo partly drawn) — recorded Plasma stability (h) cyno = >48 h

So, CCCCCCCCCCCN(C(=O)CCCCCCCCCC(=O)O)C(CCC(=O)NCCOCCOCCOCCOCCOCCOCCOCCOCCOCCOCCOCCOCCC(=O)NCc1ccc(C(=O)OC(C)(C)c2ccc(C(=O)Nc3cc(F)cc(-c4ncnc5[nH]c(-c6ccc(CCN7CCC8(CC7)CCN(C(=O)c7ccc(OC)c(N9CCC(=O)NC9=O)c7)CC8)cc6)cc45)c3C)c(F)c2)cn1)C(=O)O (stereo not drawn) ? Its Plasma stability (h) cyno was >48 h

====

# protocolDetails: BTK FAC plasma stability assay, rat plasma
# Format: in vitro ADME
# settings: 24 h
Recorded % Release of degrader after 24 h rat, one value per entry.

Guide cases for % Release of degrader after 24 h rat, answers given:
* CCCCCCCCCCCN(C(=O)CCCCCCCCCC(=O)O)C(CCC(=O)NCCOCCOCCOCCOCCOCCOCCOCCOCCOCCOCCOCCOCCC(=O)N1CCC[C@H]1CC(=O)OC(C)(C)c1ccc(C(=O)Nc2cc(F)cc(-c3ncnc4[nH]c(-c5ccc(CCN6CCC7(CC6)CCN(C(=O)c6ccc(OC)c(N8CCC(=O)NC8=O)c6)CC7)cc5)cc34)c2C)c(F)c1)C(=O)O (stereo partly shown) | 0.5%
* CCCCCCCCCCCN(C(=O)CCCCCCCCCC(=O)O)[C@@H](CCC(=O)NCC(=O)OC(C)(C)c1ccc(C(=O)Nc2cc(F)cc(-c3ncnc4[nH]c(-c5ccc(CCN6CCC7(CC6)CCN(C(=O)c6ccc(OC)c(N8CCC(=O)NC8=O)c6)CC7)cc5)cc34)c2C)c(F)c1)C(=O)O | 21.1%

Record summary for CCCCCCCCCCCN(C(=O)CCCCCCCCCC(=O)O)C(CCC(=O)NCCOCCOCCOCCOCCOCCOCCOCCOCCOCCOCCOCCOCCC(=O)N1CCC(CC(=O)OC(C)(C)c2ccc(C(=O)Nc3cc(F)cc(-c4ncnc5[nH]c(-c6ccc(CCN7CCC8(CC7)CCN(C(=O)c7ccc(OC)c(N9CCC(=O)NC9=O)c7)CC8)cc6)cc45)c3C)c(F)c2)CC1)C(=O)O (stereo not shown) : reported % Release of degrader after 24 h rat = 0.5%

% Release of degrader after 24 h rat for CCCCCCCCCCCN(C(=O)CCCCCCCCCC(=O)O)[C@@H](CCC(=O)NCCOCCOCCOCCOCCOCCOCCOCCOCCOCCOCCOCCOCCC(=O)NCCCC(=O)OC(C)(C)c1ccc(C(=O)Nc2cc(F)cc(-c3ncnc4[nH]c(-c5ccc(CCN6CCC7(CC6)CCN(C(=O)c6ccc(OC)c(N8CCC(=O)NC8=O)c6)CC7)cc5)cc34)c2C)c(F)c1)C(=O)O is 2%

What the record says about CCCCCCCCCCCN(C(=O)CCCCCCCCCC(=O)O)C(CCC(=O)NCCOCCOCCOCCOCCOCCOCCOCCOCCC(=O)NCC(=O)OC(C)(C)c1ccc(C(=O)Nc2cc(F)cc(-c3ncnc4[nH]c(-c5ccc(CCN6CCC7(CC6)CCN(C(=O)c6ccc(OC)c(N8CCC(=O)NC8=O)c6)CC7)cc5)cc34)c2C)c(F)c1)C(=O)O (stereo not shown) : % Release of degrader after 24 h rat is 18.1%

GET /value?item= CCCCCCCCCCCN(C(=O)CCCCCCCCCCO)C(CCC(=O)NCCOCCOCCOCCOCCOCCOCCOCCOCCOCCOCCOCCOCCC(=O)NCCC(=O)NCCC(=O)OC(C)(C)c1ccc(C(=O)Nc2cc(F)cc(-c3ncnc4[nH]c(-c5ccc(CCN6CCC7(CC6)CCN(C(=O)c6ccc(OC)c(N8CCC(=O)NC8=O)c6)CC7)cc5)cc34)c2C)c(F)c1)C(=O)O (stereo not shown) &field=% Release of degrader after 24 h rat returns 2.5%

Consider CCCCCCCCCCCN(C(=O)CCCCCCCCCC(=O)O)C(CCC(=O)NCCOCCOCCOCCOCCOCCOCCOCCOCCOCCOCCOCCOCCC(=O)N1CCN(CC(=O)OC(C)(C)c2ccc(C(=O)Nc3cc(F)cc(-c4ncnc5[nH]c(-c6ccc(CCN7CCC8(CC7)CCN(C(=O)c7ccc(OC)c(N9CCC(=O)NC9=O)c7)CC8)cc6)cc45)c3C)c(F)c2)CC1)C(=O)O (stereo not shown) . Its measured % Release of degrader after 24 h rat is 1.4%
